Study Target: GST-Rok-C97-191 (Bacillus subtilis subsp. subtilis str. …, UniProt O34857 97-191)
Sequence: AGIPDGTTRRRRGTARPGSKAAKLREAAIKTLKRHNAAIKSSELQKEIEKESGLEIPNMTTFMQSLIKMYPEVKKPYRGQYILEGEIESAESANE
Test: protein binding microarray; high values mean tight binding
Run Parameters: protein: recombinant; tags: GST (pTH5325, pDEST15-Magic modified); dsDNA, one strand shown
The full ranking holds about 33,000 sequences; the median of “e-score” is about -0.038, and the highest 2% start at about 0.33. The list comes from a sample in which the highest values are over-represented; it also holds close analogues and randomly drawn sequences.
If the reported binding signal equals or exceeds 0.2 E-score, assign Criterion met. If not, assign Criterion not met.

CATGTCCG Criterion not met
GGTAATTA Criterion met
TGAGAAAA Criterion not met
GAACGACC Criterion not met
GGCTAGAC Criterion not met
TAGAATCA Criterion met
CAAGCTAG Criterion not met
AGTAATTA Criterion met
AGTAATAA Criterion met
CGTAATAG Criterion met

###

Study Target: GST-Rok-C97-191 (Bacillus subtilis subsp. subtilis str. …, UniProt O34857 97-191)
Sequence: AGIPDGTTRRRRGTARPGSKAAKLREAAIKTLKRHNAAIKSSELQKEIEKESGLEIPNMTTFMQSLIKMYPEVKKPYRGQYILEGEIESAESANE
Test: protein binding microarray; high values mean tight binding
Run Parameters: protein: recombinant; tags: GST (pTH5325, pDEST15-Magic modified); dsDNA, one strand shown
Whole data set: some 33,000 sequences, median “e-score” near -0.038, cut for the highest 2% near 0.33. Shown is part of a subset that was picked to be rich in the highest values.
This listing pairs sequences with measured binding signal.
Endpoint: binding signal (E-score)

GCTTTCAA -0.116
GTTAATTA 0.19
CGTAACAG 0.131
ACATTCCC -0.0621
AGTAATTG 0.31
ATTAATTA 0.391
ATTAATTC 0.147
AGTACTGG 0.0209
GAACTATA 0.29
AGTACTCA -0.0984
ACCTCTCG 0.00338
AAGGGCAG -0.195
AGAAGCGA -0.104
CGTACTAC 0.305
AGTACTAC 0.35
AGTACTAT 0.367
AGTACTAA 0.277
AAACTATA 0.398
CCGTTTAA -0.0736
AAACTAAC 0.308
GGTACTAC 0.233
CGTAATTA 0.318

###

Study Target: GST-Rok-C97-191 (Bacillus subtilis subsp. subtilis str. …, UniProt O34857 97-191)
Sequence: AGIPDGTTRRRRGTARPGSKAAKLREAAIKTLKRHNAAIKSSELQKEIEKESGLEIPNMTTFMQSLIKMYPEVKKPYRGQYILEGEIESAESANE
Test: protein binding microarray; Rok is a gene silencer of Bacillus subtilis; high values mean tight binding
Run Parameters: protein: recombinant; tags: GST (pTH5325, pDEST15-Magic modified); dsDNA, one strand shown
Whole data set: some 33,000 sequences, median “e-score” near -0.038, cut for the highest 2% near 0.33. The sample holds the highest values, similar sequences and a random draw of the others, so the mix is not that of the screen.
Param label: returns y when binding signal < 0.2 E-score, returns n otherwise, including exact equality.

ACGGGAAA y
CATGGTGC y
CACTATCA y
AGACTACC n
TAGAAATA n
ATATACCC y
ATATACCG n
CAATAGTA n
AGTCAAAG y
CAGAACTA n
GAGAACTA n
AAACTACC n
CAATACCG y
GAACGGGA y
GTATACCA n
ATTATACA n
ATTATACC n
AAGTAACA y
CTTATACA n
GTATATTA n
GTTATACA n
CAACTACC n
CAATAGTC y
ACCTCCCG y
TAGTAACA n
AAATACCA n
CGTTTCAG y
AGAGTACT y
CAGAAATA n
CGCTATCA y
GAGAAAAA y
CAGTAACA y
CTGTGAGA y
TCACTACA y
AAGAAATA y
CAATAGTG n
ATATACCA n
CTGCAGGC y
AACTATTA n
AAAGTTTG y
ATCTATTA n
CTCTATTA n
GACTATCA y
GTTAGCGA y
